Target: PRKAA2 (human) (UniProt P54646)
Sequence (P54646 whole entry, looked up): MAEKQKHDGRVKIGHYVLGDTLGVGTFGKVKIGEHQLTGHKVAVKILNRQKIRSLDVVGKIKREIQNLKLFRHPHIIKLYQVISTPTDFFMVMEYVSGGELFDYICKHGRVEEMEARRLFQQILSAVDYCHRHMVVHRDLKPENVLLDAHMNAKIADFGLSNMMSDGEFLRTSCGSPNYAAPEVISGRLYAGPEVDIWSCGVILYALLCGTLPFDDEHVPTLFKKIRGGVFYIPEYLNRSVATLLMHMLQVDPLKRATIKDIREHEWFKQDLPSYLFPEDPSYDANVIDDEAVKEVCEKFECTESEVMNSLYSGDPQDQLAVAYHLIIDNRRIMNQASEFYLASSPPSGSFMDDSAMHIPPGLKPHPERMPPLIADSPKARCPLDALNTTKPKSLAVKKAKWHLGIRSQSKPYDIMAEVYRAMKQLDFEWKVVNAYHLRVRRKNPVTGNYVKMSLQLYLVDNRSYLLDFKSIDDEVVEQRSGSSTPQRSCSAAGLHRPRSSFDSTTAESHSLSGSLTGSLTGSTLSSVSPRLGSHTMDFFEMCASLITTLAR
Conditions: compound 10.0 µM
So I've got a bunch of compounds here, and I need their inhibition values.
Just the number please, in %, no unit attached.

Enquiry: Look up inhibition of C/C(O)=C(\C#N)C(=O)Nc1cc(Br)ccc1Br and report it.
Return: 0

Enquiry: Look up inhibition of Cc1ccc(-c2nn(C(C)(C)C)c3ncnc(N)c23)cc1 and report it.
Return: 0

Enquiry: Look up inhibition of O=C(c1ccc(Nc2nccc(-c3cc4ccccc4s3)n2)cc1)N1CCC(N2CCCC2)CC1 and report it.
Return: 75

Enquiry: Look up inhibition of O=S(=O)(c1cccc2cnccc12)N1CCCNCC1 and report it.
Return: 0

Enquiry: Look up inhibition of NC(=O)c1sc(-c2ccsc2)cc1N and report it.
Return: 0

Enquiry: Look up inhibition of O=c1cc(N2CCOCC2)nc2c3ccccc3ccn12 and report it.
Return: 7

Enquiry: Look up inhibition of Cn1cc(C2=C(c3ccc(Cl)cc3Cl)C(=O)NC2=O)c2ccccc21 and report it.
Return: 5

Enquiry: Look up inhibition of O=c1cc(N2CCOCC2)oc2c1ccc1ccccc12 and report it.
Return: 0

Enquiry: Look up inhibition of COc1ccc(C(=O)Nc2sc3c(c2C(N)=O)CCCC3)cc1OC and report it.
Return: 0

Enquiry: Look up inhibition of c1ccc(-c2n[nH]cc2-c2ccnc3ccccc23)nc1 and report it.
Return: 0

Enquiry: Look up inhibition of CC[C@@H](CO)Nc1nc(NCc2ccccc2)c2ncn(C(C)C)c2n1 and report it.
Return: 12

Enquiry: Look up inhibition of Nc1ncnc2[nH]nc(Nc3ccc(F)cc3)c12 and report it.
Return: 0

Enquiry: Look up inhibition of Cn1cc(/C=C2/C(=O)Nc3cccnc32)c2ccccc21 and report it.
Return: 22

Enquiry: Look up inhibition of CCN(CC)CCCCN1c2ccccc2Oc2ccc(Cl)cc21 and report it.
Return: 0

Enquiry: Look up inhibition of NC(=O)c1ccc(-c2nc(-c3ccccn3)c(-c3ccc4c(c3)OCCO4)[nH]2)cc1 and report it.
Return: 4
